Values from paper PMC4761355

Would you kindly list half-life at 0.6 nmol/mL for each of these compounds?
# Method description: Serum stability of 177Lu-labeled peptides in human serum
# Assay type: in vitro ADME
# Protocol conditions: human serum (freshly prepared), 37 °C, first-order fit, read-out: Serum half-life (converted)
# Description: Quality controls to determine the labeling yield and the radiochemical purity were performed using radio-HPLC. Radiolabeled peptides were utilized without further purification. […] The mixture was incubated in a 5 % CO2, 37 °C. […] After centrifugation, 50 μL of supernatant was removed and counted in a γ-well counter; the sediment was washed twice with 1 mL of EtOH and counted. […]
Respond numerically; units are days and should not be typed.

Challenge: Give the measured half-life at 0.6 nmol/mL for `CC(C)C[C@H](NC(=O)C[C@H](O)[C@H](CC(C)C)NC(=O)[C@H](Cc1c[nH]cn1)NC(=O)CNC(=O)[C@@H](NC(=O)[C@H](C)NC(=O)[C@H](Cc1c[nH]c2ccccc12)NC(=O)[C@H](CCC(N)=O)NC(=O)[C@@H](Cc1ccccc1)NC(=O)COCCOCCNC(=O)COCCOCCNC(=O)CN1CCN(CC(=O)O)CCN(CC(=O)O)CCN(CC(=O)O)CC1)C(C)C)C(N)=O`
Response given: 8.68

Challenge: Name the recorded half-life at 0.6 nmol/mL of the item `CC(C)C[C@H](NC(=O)C[C@H](O)[C@H](CC(C)C)NC(=O)[C@H](Cc1c[nH]cn1)NC(=O)CN(C)C(=O)[C@@H](NC(=O)[C@H](C)NC(=O)[C@H](Cc1c[nH]c2ccccc12)NC(=O)[C@H](CCC(N)=O)NC(=O)[C@@H](Cc1ccccc1)NC(=O)COCCOCCNC(=O)COCCOCCNC(=O)CN1CCN(CC(=O)O)CCN(CC(=O)O)CCN(CC(=O)O)CC1)C(C)C)C(N)=O` in your answer.
Response given: 17.3

###

# Method description: Biodistribution in nude mice bearing subcutaneous PC-3 xenografts
# Assay type: in vivo, CD1 nude mice
# Protocol conditions: female, CD1 nude, mouse, blood, iv, 0.25 μg, total radioactivity; 111In-labeled, 1 h post injection
Where a SMILES comes first, the peptide text is derived from it. [ ]: non-standard residue; d: D form. The star is where a group is joined. DOTA = O=C(O)CN1CCN(CC(=O)O)CCN(CC(=O)*)CCN(CC(=O)O)CC1; Sta = CC(C)C[C@H](N)[C@@H](O)CC(=O)O; AEEA = NCCOCCOCC(=O)O
Measure name: tissue uptake at 1 h

Challenge: Indicate the recorded tissue uptake at 1 h value for this molecule: CC(C)C[C@H](NC(=O)C[C@H](O)[C@H](CC(C)C)NC(=O)[C@H](Cc1c[nH]cn1)NC(=O)CNC(=O)[C@@H](NC(=O)[C@H](C)NC(=O)[C@H](Cc1c[nH]c2ccccc12)NC(=O)[C@H](CCC(N)=O)NC(=O)COCCOCCNC(=O)COCCOCCNC(=O)CN1CCN(CC(=O)O)CCN(CC(=O)O)CCN(CC(=O)O)CC1)C(C)C)C(N)=O [BN4, -Gln-Trp-Ala-Val-Gly-His-Sta-Leu-NH2] ({DOTA-AEEA-AEEA}-QWAVGH[Sta]L-NH2)
Response given: ~5 %ID/g

###

# Method description: Serum stability of 177Lu-labeled peptides in human serum
# Assay type: in vitro ADME
# Protocol conditions: human serum (freshly prepared), 37 °C, first-order fit, read-out: Serum half-life (converted)
Where a SMILES comes first, the peptide text is derived from it. [ ]: non-standard residue; d: D form. The star is where a group is joined. DOTA = O=C(O)CN1CCN(CC(=O)O)CCN(CC(=O)*)CCN(CC(=O)O)CC1; Sta = CC(C)C[C@H](N)[C@@H](O)CC(=O)O; Cha = N[C@@H](CC1CCCCC1)C(=O)O; Nle = CCCC[C@H](N)C(=O)O; AEEA = NCCOCCOCC(=O)O
Measure name: half-life at 0.6 nmol/mL (h)
Entry rule: numbers only, all in h.

Challenge: Quote half-life at 0.6 nmol/mL reported for CC(C)C[C@H](NC(=O)C[C@H](O)[C@H](CC(C)C)NC(=O)[C@H](Cc1c[nH]cn1)NC(=O)CNC(=O)[C@@H](NC(=O)[C@H](C)NC(=O)[C@H](Cc1c[nH]c2ccccc12)NC(=O)[C@H](CCC(N)=O)NC(=O)COCCOCCNC(=O)COCCOCCNC(=O)CN1CCN(CC(=O)O)CCN(CC(=O)O)CCN(CC(=O)O)CC1)C(C)C)C(N)=O [BN4, -Gln-Trp-Ala-Val-Gly-His-Sta-Leu-NH2] ({DOTA-AEEA-AEEA}-QWAVGH[Sta]L-NH2) please.
Response given: 224

Challenge: Quick one: give measured half-life at 0.6 nmol/mL for CCCC[C@H](NC(=O)[C@H](CC1CCCCC1)NC(=O)[C@H](Cc1c[nH]cn1)NC(=O)CNC(=O)[C@@H](NC(=O)[C@H](C)NC(=O)[C@H](Cc1c[nH]c2ccccc12)NC(=O)[C@H](CCC(N)=O)NC(=O)COCCOCCNC(=O)COCCOCCNC(=O)CN1CCN(CC(=O)O)CCN(CC(=O)O)CCN(CC(=O)O)CC1)C(C)C)C(=O)N[C@@H](CCC(=O)O)C(N)=O [BN3, -Gln-Trp-Ala-Val-Gly-His-Cha-Nle-Glu-NH2] ({DOTA-AEEA-AEEA}-QWAVGH[Cha][Nle]E-NH2)
Response given: 40.7

###

# Method description: Serum stability of 177Lu-labeled peptides in human serum
# Format: in vitro ADME
# Protocol conditions: human serum (freshly prepared), 37 °C, first-order fit, read-out: Serum half-life (converted)
Where a SMILES comes first, the peptide text is derived from it. [ ]: non-standard residue; d: D form. The star is where a group is joined. DOTA = O=C(O)CN1CCN(CC(=O)O)CCN(CC(=O)*)CCN(CC(=O)O)CC1; Cha = N[C@@H](CC1CCCCC1)C(=O)O; Nle = CCCC[C@H](N)C(=O)O; AEEA = NCCOCCOCC(=O)O
Measure name: half-life at 0.6 nmol/mL

Challenge: Look up and state reported half-life at 0.6 nmol/mL for CCCC[C@H](NC(=O)[C@H](CC1CCCCC1)NC(=O)[C@H](Cc1c[nH]cn1)NC(=O)CNC(=O)[C@@H](NC(=O)[C@H](C)NC(=O)[C@H](Cc1c[nH]c2ccccc12)NC(=O)[C@H](CCC(N)=O)NC(=O)COCCOCCNC(=O)COCCOCCNC(=O)CN1CCN(CC(=O)O)CCN(CC(=O)O)CCN(CC(=O)O)CC1)C(C)C)C(N)=O [BN2, -Gln-Trp-Ala-Val-Gly-His-Cha-Nle-NH2] ({DOTA-AEEA-AEEA}-QWAVGH[Cha][Nle]-NH2)
Response given: ~20 h

###

# Target or test system: gastrin-releasing peptide receptor (GRP-R) on PC-3 human prostate cancer cells (Homo sapiens)
# Construct: endogenous in cells; host or cells: PC-3 human prostate cancer cells
# Sequence (P30550 whole entry): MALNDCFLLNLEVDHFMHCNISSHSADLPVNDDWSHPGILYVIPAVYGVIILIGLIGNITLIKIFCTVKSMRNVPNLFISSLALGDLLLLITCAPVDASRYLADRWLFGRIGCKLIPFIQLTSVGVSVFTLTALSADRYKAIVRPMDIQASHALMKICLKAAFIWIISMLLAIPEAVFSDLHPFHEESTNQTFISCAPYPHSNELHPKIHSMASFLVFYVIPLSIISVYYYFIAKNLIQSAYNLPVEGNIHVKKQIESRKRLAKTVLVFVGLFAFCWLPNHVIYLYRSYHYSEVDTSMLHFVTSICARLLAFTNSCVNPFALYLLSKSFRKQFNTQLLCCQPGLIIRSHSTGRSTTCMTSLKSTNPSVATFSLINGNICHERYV
# Method description: Saturation binding experiments on whole PC-3 cells with 111In-labeled DOTA-PEG4-BN conjugates
# Protocol conditions: 111In-labeled, 4 °C
Where a SMILES comes first, the peptide text is derived from it. [ ]: non-standard residue; d: D form. The star is where a group is joined. DOTA = O=C(O)CN1CCN(CC(=O)O)CCN(CC(=O)*)CCN(CC(=O)O)CC1; Sta = CC(C)C[C@H](N)[C@@H](O)CC(=O)O; Cha = N[C@@H](CC1CCCCC1)C(=O)O; Nle = CCCC[C@H](N)C(=O)O; AEEA = NCCOCCOCC(=O)O; Sar = CNCC(=O)O
Provide the reported B max (binding sites/cell) *10^5 of each item.
Reply with just the number (in binding sites/cell *10^5).

Challenge: Output B max (binding sites/cell) *10^5 of `CSCC[C@H](NC(=O)[C@H](CC(C)C)NC(=O)[C@H](Cc1c[nH]cn1)NC(=O)CNC(=O)[C@@H](NC(=O)[C@H](C)NC(=O)[C@H](Cc1c[nH]c2ccccc12)NC(=O)[C@H](CCC(N)=O)NC(=O)COCCOCCNC(=O)COCCOCCNC(=O)CN1CCN(CC(=O)O)CCN(CC(=O)O)CCN(CC(=O)O)CC1)C(C)C)C(N)=O`
Response given: 2.45

Challenge: Please list B max (binding sites/cell) *10^5 recorded for the compound CC(C)C[C@H](NC(=O)C[C@H](O)[C@H](CC(C)C)NC(=O)[C@H](Cc1c[nH]cn1)NC(=O)CNC(=O)[C@@H](NC(=O)[C@H](C)NC(=O)[C@H](Cc1c[nH]c2ccccc12)NC(=O)[C@H](CCC(N)=O)NC(=O)COCCOCCNC(=O)COCCOCCNC(=O)CN1CCN(CC(=O)O)CCN(CC(=O)O)CCN(CC(=O)O)CC1)C(C)C)C(N)=O [BN4, -Gln-Trp-Ala-Val-Gly-His-Sta-Leu-NH2] ({DOTA-AEEA-AEEA}-QWAVGH[Sta]L-NH2)
Response given: 5.54

Challenge: Please supply the value of reported B max (binding sites/cell) *10^5 for the item CC(C)C[C@H](NC(=O)C[C@H](O)[C@H](CC(C)C)NC(=O)[C@H](Cc1c[nH]cn1)NC(=O)CN(C)C(=O)[C@@H](NC(=O)[C@H](C)NC(=O)[C@H](Cc1c[nH]c2ccccc12)NC(=O)[C@H](CCC(N)=O)NC(=O)COCCOCCNC(=O)COCCOCCNC(=O)CN1CCN(CC(=O)O)CCN(CC(=O)O)CCN(CC(=O)O)CC1)C(C)C)C(N)=O [BN5, -Gln-Trp-Ala-Val-NMeGly-His-Sta-Leu-NH2] ({DOTA-AEEA-AEEA}-QWAV[Sar]H[Sta]L-NH2)
Response given: 1.56

Challenge: Indicate the recorded B max (binding sites/cell) *10^5 value for this compound: CCCC[C@H](NC(=O)[C@H](CC1CCCCC1)NC(=O)[C@H](Cc1c[nH]cn1)NC(=O)CNC(=O)[C@@H](NC(=O)[C@H](C)NC(=O)[C@H](Cc1c[nH]c2ccccc12)NC(=O)[C@H](CCC(N)=O)NC(=O)COCCOCCNC(=O)COCCOCCNC(=O)CN1CCN(CC(=O)O)CCN(CC(=O)O)CCN(CC(=O)O)CC1)C(C)C)C(N)=O [BN2, -Gln-Trp-Ala-Val-Gly-His-Cha-Nle-NH2] ({DOTA-AEEA-AEEA}-QWAVGH[Cha][Nle]-NH2)
Response given: 4.10
